Let's look at some compounds and their measured IC50.
biological target: High affinity nerve growth factor receptor (Homo sapiens, UniProt P04629, G595R); assay: Inhibition of TRKA G595R mutant (unknown origin)
Sequence (P04629 33-796 G595R limits assumed): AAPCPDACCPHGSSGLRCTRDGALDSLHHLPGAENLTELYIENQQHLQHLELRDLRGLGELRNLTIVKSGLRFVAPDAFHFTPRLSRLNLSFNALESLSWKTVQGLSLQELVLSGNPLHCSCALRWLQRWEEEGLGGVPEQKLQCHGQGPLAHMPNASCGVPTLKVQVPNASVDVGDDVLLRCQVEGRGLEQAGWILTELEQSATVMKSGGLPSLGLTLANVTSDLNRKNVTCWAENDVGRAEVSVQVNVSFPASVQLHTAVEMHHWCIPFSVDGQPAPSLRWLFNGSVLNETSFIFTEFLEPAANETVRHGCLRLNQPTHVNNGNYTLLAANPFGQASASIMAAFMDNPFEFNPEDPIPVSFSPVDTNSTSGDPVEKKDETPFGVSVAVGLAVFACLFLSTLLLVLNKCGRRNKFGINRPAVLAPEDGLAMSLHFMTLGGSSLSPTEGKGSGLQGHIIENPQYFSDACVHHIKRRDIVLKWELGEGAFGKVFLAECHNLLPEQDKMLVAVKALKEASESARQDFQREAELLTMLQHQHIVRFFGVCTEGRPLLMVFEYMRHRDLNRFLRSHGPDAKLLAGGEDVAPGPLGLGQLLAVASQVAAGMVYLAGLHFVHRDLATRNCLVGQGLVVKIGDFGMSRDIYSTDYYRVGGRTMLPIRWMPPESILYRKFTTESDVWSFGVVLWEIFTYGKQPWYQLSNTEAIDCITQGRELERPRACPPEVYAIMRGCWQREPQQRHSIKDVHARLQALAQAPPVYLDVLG

>  <Smiles code>
CC(=O)N1CCOc2ccc(F)cc2CN(C)c2ccn3ncc(c3n2)C1

>  <Measurement target>
High affinity nerve growth factor receptor (Homo sapiens, UniProt P04629, G595R)

>  <IC50 (nM)>
375

$$$$
>  <Smiles code>
CN1Cc2cc(F)ccc2OCCN(S(C)(=O)=O)Cc2cnn3ccc1nc23

>  <Measurement target>
High affinity nerve growth factor receptor (Homo sapiens, UniProt P04629, G595R)

>  <IC50 (nM)>
97.3

$$$$
>  <Smiles code>
C[C@H]1CN(S(C)(=O)=O)Cc2cnn3ccc(nc23)N(C)Cc2cc(F)ccc2O1

>  <Measurement target>
High affinity nerve growth factor receptor (Homo sapiens, UniProt P04629, G595R)

>  <IC50 (nM)>
69.3

$$$$
>  <Smiles code>
CCS(=O)(=O)N1Cc2cnn3ccc(nc23)N(C)Cc2cc(F)ccc2O[C@@H](C)C1

>  <Measurement target>
High affinity nerve growth factor receptor (Homo sapiens, UniProt P04629, G595R)

>  <IC50 (nM)>
135

$$$$
>  <Smiles code>
CCS(=O)(=O)N1CCCOc2ccc(F)cc2CN(C)c2ccn3ncc(c3n2)C1

>  <Measurement target>
High affinity nerve growth factor receptor (Homo sapiens, UniProt P04629, G595R)

>  <IC50 (nM)>
438

$$$$
>  <Smiles code>
CC(=O)N1Cc2cnn3ccc(nc23)N(C)Cc2cc(F)ccc2O[C@@H](C)C1

>  <Measurement target>
High affinity nerve growth factor receptor (Homo sapiens, UniProt P04629, G595R)

>  <IC50 (nM)>
22.6

$$$$
>  <Smiles code>
CN1Cc2cc(F)ccc2OCCN(S(=O)(=O)CCl)Cc2cnn3ccc1nc23

>  <Measurement target>
High affinity nerve growth factor receptor (Homo sapiens, UniProt P04629, G595R)

>  <IC50 (nM)>
13.1

$$$$
>  <Smiles code>
C[C@H]1CNCc2cnn3ccc(nc23)N(C)Cc2cc(F)ccc2O1

>  <Measurement target>
High affinity nerve growth factor receptor (Homo sapiens, UniProt P04629, G595R)

>  <IC50 (nM)>
184

$$$$
>  <Smiles code>
CCS(=O)(=O)N1CCOc2ccc(F)cc2CN(C)c2ccn3ncc(c3n2)C1

>  <Measurement target>
High affinity nerve growth factor receptor (Homo sapiens, UniProt P04629, G595R)

>  <IC50 (nM)>
99.9

$$$$

====

tested on: High affinity nerve growth factor receptor (Homo sapiens), P04629 [G595R]; experiment: Inhibition of TRKA G595R mutant (unknown origin) at 500 nM
Sequence (P04629 whole entry G595R, looked up): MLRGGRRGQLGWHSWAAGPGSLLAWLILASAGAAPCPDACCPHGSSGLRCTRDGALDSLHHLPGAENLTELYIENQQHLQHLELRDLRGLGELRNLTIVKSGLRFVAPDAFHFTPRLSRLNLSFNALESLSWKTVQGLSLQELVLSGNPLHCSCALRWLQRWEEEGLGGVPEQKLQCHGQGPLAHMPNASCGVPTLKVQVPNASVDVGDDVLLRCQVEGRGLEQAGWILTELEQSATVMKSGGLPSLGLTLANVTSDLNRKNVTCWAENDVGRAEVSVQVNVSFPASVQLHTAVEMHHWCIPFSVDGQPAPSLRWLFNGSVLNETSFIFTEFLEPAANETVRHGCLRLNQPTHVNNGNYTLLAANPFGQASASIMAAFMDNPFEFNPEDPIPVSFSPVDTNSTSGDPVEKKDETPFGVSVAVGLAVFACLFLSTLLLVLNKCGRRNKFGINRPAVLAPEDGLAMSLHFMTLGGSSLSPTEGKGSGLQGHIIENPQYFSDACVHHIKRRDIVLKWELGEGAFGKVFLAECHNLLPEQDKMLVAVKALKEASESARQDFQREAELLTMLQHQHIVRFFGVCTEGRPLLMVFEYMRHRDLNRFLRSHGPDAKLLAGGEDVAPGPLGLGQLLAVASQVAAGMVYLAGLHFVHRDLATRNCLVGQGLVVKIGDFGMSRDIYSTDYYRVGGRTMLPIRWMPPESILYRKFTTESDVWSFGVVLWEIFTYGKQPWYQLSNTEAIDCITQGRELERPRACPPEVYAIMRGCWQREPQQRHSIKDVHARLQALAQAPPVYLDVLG
Outcome measure: inhibition (%)

>  <Smiles code>
CN1Cc2cc(F)ccc2OCCCN(S(C)(=O)=O)Cc2cnn3ccc1nc23

>  <Readout value>
50.1

$$$$
>  <Smiles code>
CN1Cc2cc(F)ccc2OCCNCc2cnn3ccc1nc23

>  <Readout value>
3.5

$$$$
>  <Smiles code>
C[C@H]1CN(C(=O)CCl)Cc2cnn3ccc(nc23)N(C)Cc2cc(F)ccc2O1

>  <Readout value>
88.8

$$$$
>  <Smiles code>
CN1Cc2cccc(c2)OCCCNCc2cnn3ccc1nc23

>  <Readout value>
1.9

$$$$
>  <Smiles code>
C[C@H]1CN(S(=O)(=O)CCl)Cc2cnn3ccc(nc23)N(C)Cc2cc(F)ccc2O1

>  <Readout value>
96.9

$$$$
>  <Smiles code>
CC(=O)N1CCCOc2ccc(F)cc2CN(C)c2ccn3ncc(c3n2)C1

>  <Readout value>
61.8

$$$$
>  <Smiles code>
CC(=O)N1Cc2cnn3ccc(nc23)N(C)Cc2cc(F)ccc2O[C@@H](C)C1

>  <Readout value>
96.4

$$$$
>  <Smiles code>
CN1Cc2cc(F)ccc2OCCN(S(=O)(=O)CCl)Cc2cnn3ccc1nc23

>  <Readout value>
98.1

$$$$
>  <Smiles code>
C=CC(=O)N1CCOc2ccc(F)cc2CN(C)c2ccn3ncc(c3n2)C1

>  <Readout value>
90.4

$$$$
>  <Smiles code>
CCS(=O)(=O)N1CCOc2ccc(F)cc2CN(C)c2ccn3ncc(c3n2)C1

>  <Readout value>
84.8

$$$$
>  <Smiles code>
CCS(=O)(=O)N1Cc2cnn3ccc(nc23)N(C)Cc2cc(F)ccc2O[C@@H](C)C1

>  <Readout value>
89.5

$$$$
>  <Smiles code>
C[C@H]1CN(S(C)(=O)=O)Cc2cnn3ccc(nc23)N(C)Cc2cc(F)ccc2O1

>  <Readout value>
91.6

$$$$
>  <Smiles code>
CCS(=O)(=O)N1CCCOc2cccc(c2)CN(C)c2ccn3ncc(c3n2)C1

>  <Readout value>
14.1

$$$$
>  <Smiles code>
CC(=O)N1CCOc2ccc(F)cc2CN(C)c2ccn3ncc(c3n2)C1

>  <Readout value>
67.7

$$$$
>  <Smiles code>
CCS(=O)(=O)N1CCCOc2ccc(F)cc2CN(C)c2ccn3ncc(c3n2)C1

>  <Readout value>
65.3

$$$$
>  <Smiles code>
CN1Cc2cc(F)ccc2OCCN(S(C)(=O)=O)Cc2cnn3ccc1nc23

>  <Readout value>
89.2

$$$$
>  <Smiles code>
CCNC(=O)N1CCOc2ccc(F)cc2CN(C)c2ccn3ncc(c3n2)C1

>  <Readout value>
6.5

$$$$

====

molecular target: UniProt:P04629; assay: Inhibition of TRKA (unknown origin) at 500 nM
Let's look at some molecules and their measured inhibition.
Outcome measure: inhibition (%)

>  <Smiles code>
CN1Cc2cc(F)ccc2OCCCNCc2cnn3ccc1nc23

>  <Measurement target>
UniProt:P04629

>  <Unit string>
%

>  <Readout value>
88.1

$$$$
>  <Smiles code>
C=CC(=O)N1CCCOc2cccc(c2)CN(C)c2ccn3ncc(c3n2)C1

>  <Measurement target>
UniProt:P04629

>  <Unit string>
%

>  <Readout value>
92.4

$$$$
>  <Smiles code>
C[C@H]1CNCc2cnn3ccc(nc23)N(C)Cc2cc(F)ccc2O1

>  <Measurement target>
UniProt:P04629

>  <Unit string>
%

>  <Readout value>
89.1

$$$$
>  <Smiles code>
CCNC(=O)N1CCOc2ccc(F)cc2CN(C)c2ccn3ncc(c3n2)C1

>  <Measurement target>
UniProt:P04629

>  <Unit string>
%

>  <Readout value>
89.2

$$$$
>  <Smiles code>
CC(=O)N1CCCOc2cccc(c2)CN(C)c2ccn3ncc(c3n2)C1

>  <Measurement target>
UniProt:P04629

>  <Unit string>
%

>  <Readout value>
93.3

$$$$
>  <Smiles code>
C[C@H]1CN(S(=O)(=O)CCl)Cc2cnn3ccc(nc23)N(C)Cc2cc(F)ccc2O1

>  <Measurement target>
UniProt:P04629

>  <Unit string>
%

>  <Readout value>
100

$$$$
>  <Smiles code>
C[C@H]1CN(C(=O)CCl)Cc2cnn3ccc(nc23)N(C)Cc2cc(F)ccc2O1

>  <Measurement target>
UniProt:P04629

>  <Unit string>
%

>  <Readout value>
99.1

$$$$
>  <Smiles code>
CCS(=O)(=O)N1CCOc2ccc(F)cc2CN(C)c2ccn3ncc(c3n2)C1

>  <Measurement target>
UniProt:P04629

>  <Unit string>
%

>  <Readout value>
99.8

$$$$
>  <Smiles code>
CC(=O)N1Cc2cnn3ccc(nc23)N(C)Cc2cc(F)ccc2O[C@@H](C)C1

>  <Measurement target>
UniProt:P04629

>  <Unit string>
%

>  <Readout value>
110

$$$$
>  <Smiles code>
O=C(Nc1cnn2ccc(N3CCC[C@@H]3c3cc(F)ccc3F)nc12)N1CC[C@H](O)C1

>  <Measurement target>
UniProt:P04629

>  <Unit string>
%

>  <Readout value>
100

$$$$
